Provenance of the data: a melting point compilation (Tetko et al.; mined from patent text by program, amines drawn as free bases though some values may be those of a salt)

melting point values by entry

Worked examples, 5 compounds total:
COMPOUND: COC(=O)c1ccc(OC2=C3N=C4CCCCC4=C3C(Cc3ccc(OC)c(OC)c3)C=C2)o1 (stereo unspecified)
melting point: 100 to 101 °C
--
COMPOUND: COc1ccc(CCCc2ccc(O)cc2O)c(OC)c1C
melting point: 108 °C
--
COMPOUND: Cc1c(CC(=O)O)c2cc(O)ccc2n1C(=O)c1ccc(Cl)c(Cl)c1
melting point: 177 to 179 °C
--
COMPOUND: COc1cc2c(cc1OC)[C@@H]1CCCC[C@@H]1N=C2c1ccc(NC(C)=O)cc1 (racemic)
melting point: 218 °C
--
COMPOUND: CC(CO)(CO)NCc1c2ccc3ccccc3c2cc2ccsc12
melting point: 212 to 215 °C

What the record says about CC(=O)N1CCc2ccccc2C1Cc1ccccc1N (stereo unspecified) : melting point is 142 to 148 °C

What the record says about Sc1nnc(-c2ccc3c(c2)CCO3)o1 : melting point is 219 to 221 °C

What the record says about O=C(Cc1c[nH]c2ccccc12)Nc1cc2c(cn1)[nH]c1ccccc12 : melting point is 252 to 254 °C

What the record says about Cc1c(-c2ccncc2)[nH]c(-c2ccncc2)c1C(=O)OCc1ccccc1 : melting point is 204 to 205 °C

What the record says about CCOC(=O)C(=O)Nc1ccc(C#N)c2ccccc12 : melting point is 164 °C

What the record says about CCOC(=O)c1[nH]c2cc(Cl)cc(Cl)c2c1NCCCC(=O)c1ccccc1 : melting point is 203 to 205 °C

What the record says about CC(=O)OCc1c(Br)cccc1Br : melting point is 62 to 65 °C

What the record says about CS(=O)(=O)c1ccc(-c2cc(CO)nn2-c2ccc(Cl)cc2)cc1 : melting point is 96 to 100 °C

What the record says about N#CC(C#N)=C1Sc2nc3ccc(Cl)cc3nc2S1 : melting point is > 300 °C

What the record says about CCOC(=O)Nc1nc2cc(-c3cccnc3)cc(-c3ccccn3)c2s1 : melting point is 235 °C
